Kindly supply the reported Z score values for the records listed here.
- System: 5F cells (5F HSPCs)
- testMethodNotes: Primary screen of Cayman epigenetic library in 5F cells, stromal-free T cell differentiation (proT readout)
- Assay type: cell-based, human
- experimentalSetup: calculated from the number of T progenitors after treatment, e.g., at 500 nM; Z score greater than 3 = primary hit

Prompt: I'd like to know its Z score. The molecule in question is `Cc1cc(Nc2ccc(NC(=O)c3ccc(Nc4ccnc5ccccc45)cc3)cc2)nc(N)n1`
Response: 0.09357

Prompt: I'd like to know its Z score. The molecule in question is `CNCc1ccc(-c2[nH]c3cc(F)cc4c3c2CCNC4=O)cc1`
Response: 0.4679

Prompt: I'd like to know its Z score. The molecule in question is O=C(CCCCCCC(=O)Nc1cccnc1)NO [Pyroxamide]
Response: 3.122

Prompt: I'd like to know its Z score. The molecule in question is CC(C)C(C(=O)Nc1ccc(C(=O)NO)cc1)c1ccccc1 (stereo not drawn)
Response: 4.263

Prompt: I'd like to know its Z score. The molecule in question is `COc1cc2c(NC3CCN(C)CC3)nc(N3CCCN(C)CC3)nc2cc1OCCCN(C)C`
Response: 3.475

Prompt: I'd like to know its Z score. The molecule in question is `O=C(CCCCCCC(=O)Nc1ccc(I)cc1)NO`
Response: 5.895

Prompt: I'd like to know its Z score. The molecule in question is `COCCCn1c(N)c(C(=O)NC2CCCC2)c2nc3ccccc3nc21`
Response: 8.576

Prompt: I'd like to know its Z score. The molecule in question is `CCCCc1nc2cc(/C=C/C(=O)NO)ccc2n1CCN(CC)CC`
Response: 5.042

Prompt: I'd like to know its Z score. The molecule in question is O=C(CCCCCCC(=O)Nc1ccccc1)NO [SAHA, suberoylanilide hydroxamic acid]
Response: 7.987

Prompt: I'd like to know its Z score. The molecule in question is `O=C(CCCCCN1C(=O)c2cccc3cccc(c23)C1=O)NO`
Response: 3.857

Prompt: I'd like to know its Z score. The molecule in question is `CN(C)c1ccc(C(=O)NCCCCCC(=O)NO)cc1`
Response: 4.181

Prompt: I'd like to know its Z score. The molecule in question is `Cn1cc(/C=C/C(=O)c2cccc(F)c2)cc1/C=C/C(=O)NO`
Response: 5.829

---

- Tested on: iPSC-derived CD34+ hemogenic endothelial (HE) cells
- testMethodNotes: Second screen and dose response in wild type iPSC-derived CD34+ hemogenic endothelial (HE) cells, stromal-free T cell differentiation
- Type: cell-based, human
- experimentalSetup: promotion of T cell differentiation from CD34+ HE cells, FIG. 12B, 13B-13F
recordedEndpoint: Exemplary effective dose(s)

Prompt: I'd like to know its Exemplary effective dose(s). The compound in question is COC(=O)c1ccc2c(c1)nc(NC(=O)c1ccccc1)n2CCCc1ccccc1 [BRD4770]
Response: 200 nM

Prompt: I'd like to know its Exemplary effective dose(s). The compound in question is COc1cc2c(NC3CCN(C(C)C)CC3)nc(C3CCCCC3)nc2cc1OCCCN1CCCC1 [UNC0638]
Response: 8 nM

Prompt: I'd like to know its Exemplary effective dose(s). The compound in question is COc1cc2c(NC3CCN(C(C)C)CC3)nc(N3CCC(F)(F)CC3)nc2cc1OCCCN1CCCC1 [UNC0642]
Response: 40 nM

Prompt: I'd like to know its Exemplary effective dose(s). The compound in question is COc1cc2nc(N3CCCN(C)CC3)nc(NC3CCN(Cc4ccccc4)CC3)c2cc1OC [BIX01294]
Response: 200 nM

Attribution: patent US20230073449A1
